test: protein stability index of a GFP-peptide fusion (yeast GPS) (PSI 1-4); higher = more stable; sorted into four equal gates, so the index is relative within each strain; conditions: ubr1∆
QUANTITY_NAME: protein stability index

Some solved cases for reference:
> print(dat)
                          biosequence  observed.value
1            TKHLMPQDLTFNAGSNP [RPB7]            2.79
2            QIVPYIEKLTDGHLRAP [BRR2]            3.15
3            SLTSKRLISQSLLASKS [RIP1]            1.36
4            SFTSQGTISIQLKNGLL [MTR3]            2.61
5            GCNNLIKNISNRVGLTL [ARP9]            3.14
6            ENVKIINYLLTLAITTV [RPN2]            2.99
7            LPKLNLPKYQTIQYDPP [SNF5]            2.11
8  RNQILVSITDAPKIHIL [YMR129W/POM152]            1.61

Read off the recorded protein stability index for NRGNKKRHRSSYYDNDL [YML031W/NDC1] 3

Retrieve protein stability index measured for KTPEEVEVYAKIFWERL [ISW2] and print it. 3.29

Could you please provide reported protein stability index for FIKVVNYNHLLPTRYTL [RPL27A] ? Thanks! 2.18

Look up and report measured protein stability index for this entry: ICEPKETLSIFTNVPLN [YJL039C/NUP192] 2.36

For the sequence KGPIIISKNPSNGIFYG [SIR2] , give its measured protein stability index value. 2.3

---

experiment: protein stability index of a GFP-peptide fusion (yeast GPS) (PSI 1-4); higher = more stable; sorted into four equal gates, so the index is relative within each strain; conditions: pdr5∆
Form field: protein stability index (one value per entry).
Returns: the value as a bare number; no unit string appended.

Solved entries:
> print(dat)
                         biosequence            quantity.name  observed.value
1  FGYPETIANSIILHFAN [YMR153W/NUP53]  protein stability index            2.23
2           GGSGAATFSVSQASSDL [CSL4]  protein stability index            3.31
3         PISKHSKQAIYTRATAS [RPS25A]  protein stability index            1.86

Please turn your attention to the following entry.
Tell me its protein stability index given LHVLPTLNSRALSGLYY [SNM1] as the entry. 2.45

---

test: protein stability index of a GFP-peptide fusion (yeast GPS) (PSI 1-4); higher = more stable; sorted into four equal gates, so the index is relative within each strain; details: pdr5∆
Would you mind labelling by protein stability index? At or over 2 is Yes, under is No.

Example cases with answers are listed next.
> print(dat)
                          biosequence  classification
1            ELNVDSMDVDDKNSGVK [ITC1]              No
2            MESEEVPLTKRYQHLEK [PCI8]             Yes
3  QWFLQYQNQFVEFCRNI [YML103C/NUP188]              No
4            NDRESVLTNIEVYRTSL [SMC3]             Yes
5   QVRKKQIETINFLRLPA [YDL116W/NUP84]             Yes

Does the sequence EGRLLDNVQANDPAREK [SNF12] have recorded protein stability index that is 2 or more? Yes

Given the entry GCVSYSPAALKQLASLK [YMR153W/NUP53] , answer whether its protein stability index meets or surpasses 2. Yes

Kindly determine if protein stability index recorded for TQATSEDGTSASFQIVE [RPC19] is above or exactly 2. Yes

Does protein stability index meet or surpass 2 for SMTAVPKPLKFLRPTYP [RPN1] ? Yes

Record TSPQYIPSPLSSTKPPG [NUT1] ; criterion: protein stability index no lower than 2. Met? Yes

---

The reader will find reported protein stability index values listed item by item below.
assay: protein stability index of a GFP-peptide fusion (yeast GPS) (PSI 1-4); higher = more stable; sorted into four equal gates, so the index is relative within each strain; settings: pdr5∆
// keep it numeric: no unit symbol after the value

> print(dat)
                         biosequence  observed.value
1           ELTDNMSDFVPIDAGLN [MCD1]            2.99
2         RRYDRKQSGFGGQTKPV [RPL42A]            3.03
3  EQPCVDIISGKIHSILP [YJR042W/NUP85]            3.07
4          VRSANEDGTFSVLYPDE [RRP43]            3.02

Report protein stability index for YREAPVIYRGPEPSHID [RET1] 3.07

Given the sequence LGIALIALGEDIGKEMS [RPN1] , write its reported protein stability index. 3.01

// fetch protein stability index given entry AALAPKIGPLGLSPKKV [RPL12A] 3.08

Using the record for SQLKKTKAQQKTAEQIA [RPL7B] , state its measured protein stability index. 2.92

Supply reported protein stability index belonging to this sequence: KASVTIVFDNTDKSNSP [SMC2] 3.02

In one line, give reported protein stability index of the entry CAERVKIQQQQPGYADL [QCR6] . 2.99

Give me measured protein stability index, please, for this sequence: GGQTKPVFHKKAKTTKK [RPL42A] 2.94

State its protein stability index: NGKLTSANERLFGNRPS [YML031W/NDC1] 3.03

---

assay: protein stability index of a GFP-peptide fusion (yeast GPS) (PSI 1-4); higher = more stable; sorted into four equal gates, so the index is relative within each strain; conditions: pdr5∆
QUANTITY_NAME: protein stability index
Write no unit; give the number alone.

The examples below pair each entry with its known result.
> print(dat)
                 biosequence            quantity.name  observed.value
1  VEQTAEVTIEDALKVVL [RPS12]  protein stability index            3.36
2  LFPEQQNKEIKAERVED [RPL6A]  protein stability index            3.14
3   SAFACKTDEVIILGTNL [BRR2]  protein stability index               3
4   EENSQGNILDFNLNLPP [REC8]  protein stability index             3.5
5   TCVAKKGIAKEHAKWGP [RPB3]  protein stability index            3.28

Query sequence follows.
Quick one: give measured protein stability index for LTPNEIKELEHLHDAVF [SWP82] 3.18

---

assay: protein stability index of a GFP-peptide fusion (yeast GPS) (PSI 1-4); higher = more stable; sorted into four equal gates, so the index is relative within each strain; settings: san1∆
QUANTITY_NAME: protein stability index
// keep it numeric: no unit symbol after the value

Reference set (5 entries):
> print(dat)
                 biosequence  observed.value
1   ILRKSFDFLMNMPNCDY [RPN2]            1.23
2   SAPIYVDIEYTRGRNII [RET1]            2.88
3  SKLSLSRTDAVRCKDCG [RPC10]            1.85
4   KAPTKLDDPEAVSKDPL [DIS3]            3.17
5   TLTKISMLFKTSQKMTS [MCD1]            2.45

API: the following record is the query input.
Item NDNEDDDEEYDYNDVEV [BRR2] : provide protein stability index 3.34

---

test: protein stability index of a GFP-peptide fusion (yeast GPS) (PSI 1-4); higher = more stable; sorted into four equal gates, so the index is relative within each strain; conditions: san1∆
Label 0 if protein stability index falls below 3; label 1 in every other case.

> print(dat)
                biosequence  classification
1  MACNFQFPEIAYPGKLI [CSL4]               0

Could you tell me if the measured protein stability index of KLVRDSFTSATERHIQV [PRE7] reaches 3 or more? 1

---

assay: protein stability index of a GFP-peptide fusion (yeast GPS) (PSI 1-4); higher = more stable; sorted into four equal gates, so the index is relative within each strain; conditions: doa10∆
Classification field: YES = protein stability index at or over 3; NO = protein stability index under 3.

> print(dat)
                biosequence  classification
1  HHSWSQSDLEIITQYVF [ARP9]              NO

Please tell me: is the sequence RHKNKHIQGFPTLGERL [DSN1] at or over 3 in terms of protein stability index? YES

hey, is protein stability index for this one >= 3? LQPFYSQPTAAGGPDMT [DSN1] NO

Is protein stability index at least 3? Consider ETAAMASLALAHVFVGT [RPN1] NO

Answer whether protein stability index of NSLLSNFNDIPPSVTLQ [YDL088C/ASM4] is greater than or equal to 3. NO

Reported protein stability index reaches at least 3 for LFGEKSILGKFCPIVEE [YCS4] ? NO

Could you tell me if the measured protein stability index of PTEMEPDLDTECFISMQ [SWI1] reaches 3 or more? YES

Form field: protein stability index at least 3? Entry: EEGEFIIDLYSLPEGLL [TAF14] YES

Has DPFSIYGFSNKEYISRL [SNF5] a recorded protein stability index greater than or equal to 3? NO

hey, is protein stability index for this one >= 3? VLKEKDVPAYNVTSFMP [SRB8] YES

Item DPTKVTEFEFYLLEELE [SSN8] with protein stability index of 3 or above? YES

Dear colleague, could you confirm whether ISHDDLQAVAVAVSTKK [FAS2] has protein stability index at or above 3? NO

Check this sequence for protein stability index at or above 3: VNEPTKNEEAEIEVDEM [RPN1] YES

Is it the case that IQKESTLHLVLRLRGGG [RPS31] has protein stability index reaching or exceeding 3? NO
